# Run Description: Inhibition of Bacillus pasteurii urease
# Parameters: species or system Sporosarcina pasteurii
pKi: −log10 of the molar value.
Classification field: enter y for pKi values not below 5, n for values below it.

Incoming: Determine whether this molecule has pKi no lower than 5: CP(O)(=S)CNC(=O)CNC(=O)OCc1ccccc1 (stereo not drawn)
Outgoing: y

Incoming: Determine whether this molecule has pKi no lower than 5: CN(C)CP(=O)(O)CO
Outgoing: y

Incoming: Determine whether this molecule has pKi no lower than 5: CNCP(C)(=O)O
Outgoing: n

Incoming: Determine whether this molecule has pKi no lower than 5: CP(=O)(O)CNC(=O)CN
Outgoing: n

Incoming: Determine whether this molecule has pKi no lower than 5: CP(=O)(O)CN
Outgoing: n

Incoming: Determine whether this molecule has pKi no lower than 5: CNCP(=O)(O)CO
Outgoing: y

Incoming: Determine whether this molecule has pKi no lower than 5: CN(C)CP(C)(=O)O
Outgoing: y

Incoming: Determine whether this molecule has pKi no lower than 5: NCP(=O)(O)CO
Outgoing: n

====

# Run Description: Tmax in healthy human at 10 mg dosed as single daily dose
# Format: ADME, organism-based
# Condition Description: in vivo
Test Readout: Tmax (h)
Number only, in h; omit the unit.

Incoming: Specify Tmax for CCC(=O)O[C@@H](O[P@](=O)(CCCCc1ccccc1)CC(=O)N1C[C@H](C2CCCCC2)C[C@H]1C(=O)O)C(C)C [FOSINOPRIL] and stop.
Outgoing: 3

====

# Target Or Test System: Aminopeptidase N (Homo sapiens)
# Sequence (P15144 whole entry): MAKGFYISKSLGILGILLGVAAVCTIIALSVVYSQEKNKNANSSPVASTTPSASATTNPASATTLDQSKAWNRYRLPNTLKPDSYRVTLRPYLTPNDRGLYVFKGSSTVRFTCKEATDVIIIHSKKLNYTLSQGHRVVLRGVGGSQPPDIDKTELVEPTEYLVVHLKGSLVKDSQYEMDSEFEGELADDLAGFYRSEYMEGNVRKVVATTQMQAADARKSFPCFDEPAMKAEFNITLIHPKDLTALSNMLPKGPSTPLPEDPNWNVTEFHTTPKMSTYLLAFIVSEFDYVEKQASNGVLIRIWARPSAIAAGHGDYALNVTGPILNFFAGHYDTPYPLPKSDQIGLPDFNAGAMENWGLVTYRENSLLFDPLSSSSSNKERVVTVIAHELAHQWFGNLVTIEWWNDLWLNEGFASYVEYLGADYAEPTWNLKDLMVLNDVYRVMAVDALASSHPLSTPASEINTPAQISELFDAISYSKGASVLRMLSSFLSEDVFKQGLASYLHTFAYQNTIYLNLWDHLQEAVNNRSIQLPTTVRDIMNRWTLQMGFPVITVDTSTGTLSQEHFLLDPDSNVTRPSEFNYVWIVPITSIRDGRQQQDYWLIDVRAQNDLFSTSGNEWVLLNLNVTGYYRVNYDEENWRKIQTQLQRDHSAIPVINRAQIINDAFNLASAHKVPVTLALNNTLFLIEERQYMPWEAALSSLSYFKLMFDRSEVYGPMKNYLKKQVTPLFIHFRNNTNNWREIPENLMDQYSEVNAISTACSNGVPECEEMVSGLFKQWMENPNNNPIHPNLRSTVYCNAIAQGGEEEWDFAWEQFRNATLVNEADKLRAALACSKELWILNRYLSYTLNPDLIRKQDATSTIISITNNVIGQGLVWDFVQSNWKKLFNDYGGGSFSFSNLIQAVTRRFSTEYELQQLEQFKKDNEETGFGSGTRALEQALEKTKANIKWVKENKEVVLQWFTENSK
Test Readout: Ki (nM)
Number only, in nM; omit the unit.

Incoming: Specify Ki for CC(C)CC(CP(=O)(O)[C@@H](N)CC(C)C)C(=O)O (mixture of isomers) and stop.
Outgoing: 1020

====

# Run Description: Inhibition of ECE
Test Readout: pKi
Scale: negative log10 of molar concentration, which is what pKi denotes.

Incoming: Specify pKi for O=C(N[C@@H](Cc1ccccc1)P(=O)(O)C[C@H](Cc1cc(-c2ccccc2)no1)C(=O)N[C@@H](Cc1ccc(O)cc1)C(=O)O)OCc1ccccc1 and stop.
Outgoing: 7.85

====

# Run Description: Half life in pH 7.8 buffer
# Format: physicochemical
Test Readout: half-life (h)
Number only, in h; omit the unit.

Molecule: CCOC(=O)CNC(=O)c1ccc(OP(=O)(Oc2ccc(C(=O)NCC(=O)OCC)cc2)C2CCCN2C(=O)[C@@H]2CCCN2)cc1 (some centres undefined)
Test Readout: half-life
Readout Value: 0.583

Incoming: Specify half-life for CC(=O)Nc1ccc(OP(=O)(Oc2ccc(NC(C)=O)cc2)C2CCCN2C(=O)[C@@H]2CCCN2)cc1 (some centres undefined) and stop.
Outgoing: 5.33

====

# Target Or Test System: Farnesyl pyrophosphate synthase (Homo sapiens, UniProt P14324)
# Sequence (P14324 whole entry): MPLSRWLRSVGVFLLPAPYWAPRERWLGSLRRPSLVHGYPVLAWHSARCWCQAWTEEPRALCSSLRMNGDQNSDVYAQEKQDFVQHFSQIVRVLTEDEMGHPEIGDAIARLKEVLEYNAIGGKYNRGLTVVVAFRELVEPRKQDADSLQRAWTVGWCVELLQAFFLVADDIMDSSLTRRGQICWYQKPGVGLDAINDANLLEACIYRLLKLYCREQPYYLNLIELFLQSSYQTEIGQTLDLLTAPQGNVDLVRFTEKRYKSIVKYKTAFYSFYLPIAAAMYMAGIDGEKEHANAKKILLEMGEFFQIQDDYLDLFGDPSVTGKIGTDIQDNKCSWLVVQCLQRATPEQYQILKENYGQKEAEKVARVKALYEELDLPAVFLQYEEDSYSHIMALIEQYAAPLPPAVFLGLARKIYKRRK
Test Readout: IC50

Incoming: Specify IC50 for O=P(O)(O)C(NC1CCCCCC1)P(=O)(O)O [INCADRONIC ACID] and stop.
Outgoing: 0.03 µM

Where do the numbers come from? From ChEMBL document CHEMBL2150865.
